Target: T1, PCSK9 protein inserted with biotin receiving peptide BP15 and His-tag: PCSK9-BP15-His6 (human, UniProt Q8NBP7 153-692; A8T644 31-152, biotin on the BP15 biotin receiving peptide (labeled during the expression))
T1 construct: also called WT PCSK9; PCSK9 WT
Assay: ELISA, biotin PCSK9 on streptavidin plate
property_measured: EC50

[[record]]
binder = "h011-3194 (antibody, V domains shown) VH: QVQLVQSGAEVKKPGASVKVSCKASGYTFTGYTIHWVRQAPGQGLEWMGYINPSSTYTKFNQKFKDRVTMTRDTSISTAYMELSRLRSDDTAVYYCARERIYSNYWFFDVWGQGTTVTVSS VL: DIVMTQSPSSLSASVGDRVTITCKASQNVYTAVAWYQQKPGKSPKLLIYSASNRYTGVPSRFSGSGSGTDFTLTISSLQPEDFATYFCQQLSSYPYTFGGGTKVEIK"
property_measured = "EC50"
readout_value = "4.69 ng/mL"

[[record]]
binder = "h011-3121 (antibody, V domains shown) VH: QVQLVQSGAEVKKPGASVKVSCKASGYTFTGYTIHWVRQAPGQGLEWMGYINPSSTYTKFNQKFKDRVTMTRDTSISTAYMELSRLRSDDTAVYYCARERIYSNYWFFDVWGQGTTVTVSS VL: DIVMTQSPSSLSASVGDRVTITCKASQNVYTAVAWYQQKPGKSPKLLIYSASNRYTGVPSRFSGSGSGTDFTLTISSLQPEDFATYFCQQLSSQPETFGGGTKVEIK"
property_measured = "EC50"
readout_value = "3.78 ng/mL"

[[record]]
binder = "h011-3073 (antibody, V domains shown) VH: QVQLVQSGAEVKKPGASVKVSCKASGYTFTGYTIHWVRQAPGQGLEWMGYINPSSTYTKFNQKFKDRVTMTRDTSISTAYMELSRLRSDDTAVYYCARENIFSNYWFFDRWGQGTTVTVSS VL: DIVMTQSPSSLSASVGDRVTITCKASQNVYTAVAWYQQKPGKSPKLLIYSASNRYTGVPSRFSGSGSGTDFTLTISSLQPEDFATYFCQQYSSYPYTFGGGTKVEIK"
property_measured = "EC50"
readout_value = "3.89 ng/mL"

[[record]]
binder = "h011-3187 (antibody, V domains shown) VH: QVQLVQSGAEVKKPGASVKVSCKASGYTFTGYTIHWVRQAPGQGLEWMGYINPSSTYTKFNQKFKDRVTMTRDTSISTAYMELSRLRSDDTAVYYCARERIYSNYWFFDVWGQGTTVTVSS VL: DIVMTQSPSSLSASVGDRVTITCKASQNVYTAVAWYQQKPGKSPKLLIYSASNRYTGVPSRFSGSGSGTDFTLTISSLQPEDFATYFCQQLSSSPETFGGGTKVEIK"
property_measured = "EC50"
readout_value = "4.5 ng/mL"

[[record]]
binder = "h011-3058 (antibody, V domains shown) VH: QVQLVQSGAEVKKPGASVKVSCKASGYTFTGYTIHWVRQAPGQGLEWMGEINPSGTYTKFNQKFKDRVTMTRDTSISTAYMELSRLRSDDTAVYYCARERIYSNYWFFDVWGQGTTVTVSS VL: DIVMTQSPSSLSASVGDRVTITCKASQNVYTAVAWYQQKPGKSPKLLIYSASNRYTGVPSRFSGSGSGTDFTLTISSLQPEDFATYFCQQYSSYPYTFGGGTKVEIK"
property_measured = "EC50"
readout_value = "3.69 ng/mL"


Data provenance: patent US20200270365A1
